This listing pairs compounds with measured pIC50.
testProtocol: MMV: Cytotoxicity against human fibroblasts (MRC-5) cells.
conditionInfo: MRC-5 cells (human fibroblasts)
pIC50: −log10 of the molar value.

Example cases with answers are listed next.
> print(dat)
                                   compound  metricname  valuereported
1  O=C(NCC(c1ccsc1)N1CCCCCC1)c1ccc(C(F)(F)F)cc1 (stereo unspecified)       pIC50         < 4.49
2  COc1ccc(C(=O)Nc2nonc2-c2ccc(OC)c(OC)c2)cc1Cl       pIC50         < 4.49
3  CCN(CC)S(=O)(=O)c1ccc(-c2csc(Nc3ccc(C)c(C)c3)n2)cc1       pIC50         < 4.49
4       CN(C)c1ccc(N2C(N)=NC(N)=NC2(C)C)cc1       pIC50         < 4.49
5        CCOc1ccc(Nc2c3ccccc3nc3ccccc23)cc1       pIC50           5.07

Ask: // lookup pIC50 for `CCn1c(SCC(=O)Nc2cc(C(F)(F)F)ccc2Cl)nc2ccccc2c1=O`
Result: < 4.49

Ask: // lookup pIC50 for O=C1CC(O)(C(F)(F)C(F)(F)F)Oc2ccccc21 (stereo unspecified)
Result: 4.74

Ask: // lookup pIC50 for `CC(C)(C)c1ccc2c(c1)CN(Cc1ccc(Cl)cc1)CO2`
Result: < 4.49

----------
Tested on: Leishmania infantum
testProtocol: MMV: Inhibition of Leishmania infantum (MHOM/MA/BE/67) in vitro.
Format: functional, organism-based
metricName: IC50 (µM)
Entry rule: numbers only, all in µM.

Example cases with answers are listed next.
> print(dat)
                                   compound   u  valuereported
1  COc1ccccc1N1C(=N)SC(=Cc2ccc(OCc3ccccc3F)cc2)C1=O  µM           25.4
2  CC(C)OCc1cc(CN2CCN(c3cccc(Cl)c3)CC2)c(O)c2ncccc12  µM           1.19
3           CC(C)(C)c1ccc(O)c(CNC2CCCCC2)c1  µM             16
4  CCn1nc(-c2ccc(C(=O)OC)cc2)nc2c(=O)n(C)c(=O)nc1-2  µM           4.06
5  CCOc1cc(CNC(C)C(O)c2ccccc2)cc(Cl)c1OCC (stereo unspecified)  µM           16.6
6  COc1ccc(C2c3ccc4ccccc4c3Oc3ncn(CCCN(C)C)c(=N)c32)cc1 (stereo unspecified)  µM           1.01
7  CC(C)c1ccc(CNCC(O)c2ccccc2)cc1 (stereo unspecified)  µM           10.2

Next compound, IC50 to be filled in.
Ask: // lookup IC50 for CCCCCC(=O)N1c2ccccc2N=C2CC(c3ccc(OC)c(OC)c3)CC(O)=C2C1c1ccc(C(F)(F)F)cc1 (stereo unspecified)
Result: 25.4

----------
This listing pairs molecules with measured IC50.
testProtocol: MMV: Cytotoxicity against human fibroblasts (MRC-5) cells.
conditionInfo: MRC-5 cells (human fibroblasts)

Example cases with answers are listed next.
> print(dat)
                                   molecule  metricname  valuereported
1  Cc1cc(N(C)C)nc(Nc2ccc(NC(=O)Nc3ccccc3)cc2)n1        IC50        23.8 µM
2   COc1ccc(-c2c(C)nn3c(N)c(C#N)cnc23)cc1OC        IC50        27.6 µM
3    COc1cc2c(cc1OC)C1=NNC(=O)C1=NC(C)(C)C2        IC50        > 32 µM
4  COc1ccc(CN2CCCC(C(=O)c3ccc(C(F)(F)F)cc3)C2)c(O)c1 (stereo not drawn)        IC50        > 32 µM
5  Cc1ccc2c(C)nc(Nc3nc(C)cc(-c4ccccc4)n3)nc2c1        IC50        > 32 µM
6  OC1=C2C(=Nc3ccccc3SC2c2ccc(Br)cc2)c2ccccc21 (stereo not drawn)        IC50        > 32 µM
7  O=C(NNc1cc(N2CCCC2)nc(N2CCCC2)n1)c1ccccc1        IC50        > 32 µM
8  CCCCCCn1c(=N)n(CC(O)COc2cccc(C)c2)c2ccccc21 (stereo not drawn)        IC50           4 µM

Ask: // lookup IC50 for CCc1ccc(CNCC(O)c2ccccc2)cc1 (stereo not drawn)
Result: > 32 µM

Ask: // lookup IC50 for `COc1ccc(-n2ccnc2SCC(=O)Nc2cc(C)ccc2C)c(OC)c1`
Result: > 32 µM

Ask: // lookup IC50 for `CCOC(=O)C1(Cc2ccccc2)CCN(Cc2cccc(OC)c2O)CC1`
Result: > 32 µM

Ask: // lookup IC50 for `C=CCc1c(C)nc2ccccc2c1O`
Result: > 32 µM

Ask: // lookup IC50 for COc1ccc(C2=C(c3ccc(OC)cc3)C3(c4ccccc4)C(=O)C2(c2ccccc2)C2C(=O)N(c4ccc(C)cc4)C(=O)C23)cc1 (stereo not drawn)
Result: > 32 µM

----------
This listing pairs compounds with measured IC50.
Tested on: Leishmania infantum
testProtocol: MMV: Inhibition of Leishmania infantum (MHOM/MA/BE/67) in vitro.
Format: functional, organism-based

Example cases with answers are listed next.
> print(dat)
                                   compound  valuereported
1      CCOC(=O)c1cnc2ccc(OC)cc2c1NCc1ccccc1        10.1 µM
2       Cc1cc(NC(=O)c2ccc(-c3ccccc3)cc2)no1        > 32 µM
3  CCCCc1ccc(NS(=O)(=O)c2cc3c4c(c2)CCN4C(=O)CC3)cc1          19 µM
4           Cc1ccc(NC(=O)Nc2cccc(Cl)c2)cc1F        > 32 µM
5   COc1ccc(C=C2SC(=N)N(c3ccccc3OC)C2=O)cc1        16.1 µM
6              CCCCc1c(CCC)c(=N)c2ccccc2n1C        6.35 µM

Ask: // lookup IC50 for `Cc1ccc(-c2cc3c(nn2)-c2ccccc2C3=O)cc1`
Result: > 32 µM

Ask: // lookup IC50 for CCOc1cc(Br)c(C(C)NC(=O)c2cccc(OC)c2)cc1OCC (stereo unspecified)
Result: > 32 µM

Ask: // lookup IC50 for `Cc1cc(C)cc(Nc2cc(C)nc3nc(C(F)(F)F)nn23)c1`
Result: > 32 µM

Ask: // lookup IC50 for `CCCn1c(=N)c(C(=O)NC2CCCCC2)cc2c(=O)n3cccc(C)c3nc21`
Result: > 32 µM

Ask: // lookup IC50 for `CC(C)(C)C(=O)Nc1ccc(C(=O)Nc2cccc(-c3nc4ccccc4[nH]3)c2)cc1`
Result: > 32 µM

----------
System: Leishmania infantum
testProtocol: MMV: Inhibition of Leishmania infantum (MHOM/MA/BE/67) in vitro.
Format: functional, organism-based
This listing pairs compounds with measured IC50.
Entry rule: numbers only, all in µM.

> print(dat)
                                    compound          studytarget  valuereported
 1       Cc1cc(Nc2cccc(F)c2)nc(NCc2ccccc2)n1  Leishmania infantum           2.57
 2  OC(CNC1CCCCC1)Cn1c2ccc(I)cc2c2cc(I)ccc21 (configuration not stated)  Leishmania infantum           1.59
 3           Cc1ccc(Nc2nc(N)c3ccccc3n2)cc1Cl  Leishmania infantum              4
 4  COc1ccccc1NC1=C(N2CCCCC2)C(=O)c2ccccc2C1=O  Leishmania infantum           3.01
 5            COc1cccc(Nc2nc(N)c3ccccc3n2)c1  Leishmania infantum             12
 6  Cc1cccc(-n2ncc3c(O)nc(-n4nc(C)cc4NC(=O)c4cc5ccccc5o4)nc32)c1  Leishmania infantum           4.32
 7  CSC1=NC(=Nc2c(C)cccc2C)C2(CCC(C(C)(C)C)CC2)N1c1ccc(Cl)cc1 (configuration not stated)  Leishmania infantum           16.2
 8  COc1ccc(-c2nc(N3CCN(C(=O)C4CCCCC4)CC3)c3c4c(sc3n2)CCCC4)cc1  Leishmania infantum           4.32
 9  FC(F)(F)c1cccc(CNC2CCN(CCc3ccccc3)CC2)c1  Leishmania infantum           16.6
10  COc1ccc(CNC(=O)c2cc3c(=O)n4ccccc4nc3n(CCc3ccccc3)c2=N)cc1  Leishmania infantum           13.6

Ask: // lookup IC50 for `CCN1CCN(Cc2ccc(NC(=O)c3cc4ccc5cccnc5c4[nH]3)cc2)CC1`
Result: 6.35

Ask: // lookup IC50 for `COc1cc(OC)cc(N2C(=O)N(Cc3ccc(C(C)(C)C)cc3)c3ccccc3S2(=O)=O)c1`
Result: 16.2

Ask: // lookup IC50 for `CC1CCN(Cc2ccc(NC(=O)c3cc4ccc5cccnc5c4[nH]3)cc2)CC1`
Result: 3.01

Ask: // lookup IC50 for `Oc1ccccc1CN1CCN(C(c2ccccc2)c2ccccc2)CC1`
Result: 11.9

Ask: // lookup IC50 for `Cc1cc(C)c2nc(N3CCC(C(=O)NCCCN4CCC(N5CCCCC5)CC4)CC3)sc2c1`
Result: 4.06

Ask: // lookup IC50 for `COc1ccc(C(=O)Nc2ccc3nc(N4CCCCC4)cc(C)c3c2)cc1OC`
Result: 16.2

Ask: // lookup IC50 for OC1=C2C(=Nc3ccccc3SC2c2ccccc2)c2ccccc21 (configuration not stated)
Result: 16.2

Ask: // lookup IC50 for `Oc1ccc(-c2nc(-c3ccc4oc5ccc(-c6[nH]c(-c7ccc(O)cc7)nc6-c6ccccc6)cc5c4c3)c(-c3ccccc3)[nH]2)cc1`
Result: 4

Ask: // lookup IC50 for `CN1CCN(c2ccc(Nc3c4ccccc4nc4ccccc34)cc2)CC1`
Result: 4.06

Ask: // lookup IC50 for `CCN(CC)CCNc1ccnc2cc(Cl)ccc12`
Result: 17.3

Ask: // lookup IC50 for `O=C1c2ccc3c4c(ccc(c24)C(=O)N1CCCCO)C(=O)N(CCCCO)C3=O`
Result: 1.01

Ask: // lookup IC50 for `O=C(NNc1cc(N2CCCC2)nc(N2CCCC2)n1)c1ccccc1`
Result: 25.4
